assay: yeast display, Sf9 membrane polyspecificity reagent, FACS + sequencing; frameworks hold sequencing errors
readout: polyreactivity (PSR sort gate)

* QVQLEESGGGLVQAGGSLRLSCAASGFTFYRDTMGGYRQAPGKERELFAAITRDGSTYYADSVKGRFTISRDNAKYTVSLQLNSLKPEDTAVYYWNARGTVPWYGYDYWGQGTQVNVSS | high polyreactivity
* QVQLVESGGGLVQAGGSLRLSCAASGFTLADNPMGWYRQAPGKERELVAAITSGASTYYADSVKGRFTISRDNAKNTVYLQMNTLKPEDTAVYYCAALYYWRSGYDAWGQGTQVTVSS | low polyreactivity
* QVQLVESGGGLVQAGGSLRLSCAASGNTFSVYTMGWYRQAPGKERELVAAITRGGDSTYYADSVKGRFTISRDNAKNTVYLQMNSLKPEDTAVYYCAADHDGPYAGYDSWGQGTQVTVSS | low polyreactivity
* QVQLVESVGGLVQAGGSLRLSCAASGFIFYWYAMGWYRQAPGKERELVAAITRSGGRTYYADSVKGRFTISRDNAKNTVYLQMNSLKPEDTAVYYCNAGYWLSPYKFGYWGQGTQVTVSS | high polyreactivity

Okay, next one:
Lab note: measured polyreactivity (PSR sort gate) of QVQLVESGGGLVQAGGSLRLSCAASGITFVRYAKGWYRHAPGKEREFVARISRSGASTYYADSVKGRFTISRDNAKNTVYLQMNSLKPEDTAVYYCNAVPGGSRFDYWGQGTQVTVSS was high polyreactivity

* * *

assay: yeast display, Sf9 membrane polyspecificity reagent, FACS + sequencing; frameworks hold sequencing errors
readout: polyreactivity (PSR sort gate)

Solved entries:
• QVQLVESGGGLVQAGGSLRLSCAASGITFVFYAMGRYRPAPGKERELVAAISSSGGSTYYADSVKGRFTISRDNAKNTVYLQMNSLKAEDTAVYYCNAKVFSYQGAVRYDYWGQGTQVTVSS = high polyreactivity
• QVQLVESGGGLVHAGGSLRLSCAASGRTFIRYAMGWYIQAPGKERQLVAAISSSGGSTYYADSVKGRFTISRDNAKNTVYLQMNSLKPEDTAVYYCNAYVYYSHEDDYWGQGTQVTVSS = high polyreactivity
• QVQLVESGGGLVQAGGSLRLSCAASGIIFYDNAMGWYRKAPGKERELVATITRSGDSTYYADSVKGRFTISRDNAKNTVYLQMNSLKPEDTAVYYCAKDTYGVLAYFQVSREYWGQGTQVTVSS = low polyreactivity
• QVQLVETGGGLVQAGGSLRLSCAPSGITFYVYAMGWYTQAPGKERELVAAISSGSSTYYADSVKGSFTISRDNAKNTVYLQMNSLKPEDTAVYYCAARYRKYLSEYCGQGTQVTVSS = high polyreactivity
• QDDLVESGGGLVQAGGSLRFRGAASGYTFEKYAMGWKRQAPGKERELFASISWSGGRTRYADSVKGRFTISRDNAKNTDSLQMNSLQPEDTAVDYCAARGAYKSGYNRNEYWGQGTQVTVSS = high polyreactivity
• QVQLVESGGGLVQAGGSLRLSCAASGFIFTGNVMGWYRQAPGKERELVAAITSSGGSTYYADSVKGRFTISRDNAKNTVYLQMNSLKPEDTAVYYCATRYGGRYYWGQGTQVTVSS = high polyreactivity

Turning to the following sequence.
QVQLVESGGGLVQAGGSLRLSCAASGSTFCYSVMGWYRQEPRTEREFVAAISTRGDSTYYADSVKGRFTLSRDNAKNTVYLQMNSLKPEDTAVYYCAKSRQSCGRVRLDYWGQGTQVTVSS has a reported polyreactivity (PSR sort gate) of low polyreactivity
